target: PZP domain of JADE1 (JADE1PZP), wild type (human, UniProt Q6IE81 201-373); assay: NMR titration
Sequence (Q6IE81 201-373): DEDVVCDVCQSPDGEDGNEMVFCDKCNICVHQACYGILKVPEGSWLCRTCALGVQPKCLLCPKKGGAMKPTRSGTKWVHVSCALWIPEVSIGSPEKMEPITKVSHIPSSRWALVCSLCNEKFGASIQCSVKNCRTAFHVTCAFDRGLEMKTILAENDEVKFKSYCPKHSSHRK
No end group written: not given here. Me3 = trimethyl (lysine)
parameter: pKd
A value of pKd is the negative decimal logarithm of a concentration given in moles per litre.

Fill in: pKd of ARTK(Me3)QTARKSTG (peptide, UniProt P68431 2-13, looked up) [H3K4me3_(1–12) peptide] is ___
2.52
